Values from PubChem BioAssay (NCI)

System: HCT-116 colon
Assay: NCI tumour cell line growth inhibition, 48 h
quantity_name: TGI

Query :: Give the reported TGI for Cc1ccc([N+](=O)[O-])cc1S(=O)(=O)Nc1ccc(C2=NNC(c3cccs3)C2)cc1 (centres undefined) (system: HCT-116 colon).
Result :: 63.5 µM

Query :: Same thing, different molecule: CC(=O)O[C@H]1CCC2[C@@H]3CCC4Nc5c(cnn5-c5ccccc5)C[C@]4(C)C3CC[C@@]21C (some centres undefined)
Result :: 27.5 µM

Query :: What about this molecule? O=C1C(Cl)=C(Nc2cccc(O)c2)C(=O)N1c1cccc(Cl)c1
Result :: > 100 µM

Query :: Also need COc1cc2cc(C(=O)N3CC(CCl)c4c3cc(N(C)C)c3ccccc43)[nH]c2c(OC)c1OC (centres undefined) , thanks.
Result :: > 100 µM

Query :: Now this one: NCC1OC(n2cnc3c(=O)[nH]c(N)nc32)C(O)C1O (centres undefined)
Result :: > 100 µM

Query :: Would you kindly repeat that for N#CC(C(=O)CCC(=O)Nc1ccc(Cl)cc1)c1ccccc1Cl (centres undefined) ?
Result :: > 100 µM

Query :: Request: Cc1ccc(Nc2sc(C)cc2C#N)c([N+](=O)[O-])c1
Result :: > 100 µM

Query :: Let us now turn to Cc1ccc(NC(=O)CC/C(CC(=O)c2ccc(Cl)cc2)=N\NC(=O)C(=O)NN)cc1C
Result :: > 100 µM

Query :: What do you have for CC(=O)O[C@H]1CC[C@@]2(C)C(=CC[C@@H]3[C@@H]2CC[C@]2(C)c4c(cc(C#N)c(=N)n4C(C)=O)C[C@@H]32)C1 ?
Result :: 28.5 µM

###

Test system: DU-145 prostate
Assay: NCI tumour cell line growth inhibition, 48 h
Listed next: entries and their corresponding TGI.
Express it in µM; write the number only.

// worked examples, TGI included
Query :: What value of TGI has been recorded for this entry: CC(C)(C)c1ccc2c(c1)CNCCNCCNCc1cc(C(C)(C)C)ccc1OCC1(CO2)COc2ccc(C(C)(C)C)cc2CNCCNCCNCc2cc(C(C)(C)C)ccc2OC1
Result :: 2.83

Query :: Please give the result for NC(=O)c1cc(Cl)ccc1NC(=O)c1ccccc1-c1ccccc1 too.
Result :: 16

Query :: Next compound: O=C1CCC2=C3C4CCCCC4C(=O)C4CCCC(OC2C1)C34 (stereo not drawn)
Result :: 2.1

Others:
Query :: Value lookup for TGI; key = C#Cc1cccc(Nc2ncnc3ccc(-c4cnc(Cl)c(NS(C)(=O)=O)c4)cc23)c1
Result :: 6.99

Query :: What about this compound? COc1ccc(CCCC(=O)O)c(C)c1
Result :: 56.6

Query :: Same for O=C1/C(=C/c2ccccc2Br)COc2ccc(O)c(O)c21
Result :: 3.23

Query :: Can you handle Cc1ccc2c(N/N=C\c3ccco3)cc(C)nc2n1 next?
Result :: 20.1

Query :: Now try CCN(CC)CCSc1nc2c(c(=N)n1-c1ccccc1)c(=S)n(-c1ccccc1)c(=S)n2-c1ccccc1 .
Result :: 3.05

###

System: TK-10 renal
Experiment: NCI tumour cell line growth inhibition, 48 h
quantity_name: TGI (µM)
Write the number in µM without appending the unit.

Query :: I have this compound here, NCC(=O)N1CCN(c2nc(N3CCCC3)c3nc(Cl)c(NCc4ccccc4)nc3n2)CC1 , and I need its recorded TGI.
Result :: 3.73

Query :: And what about the compound CCC1CCCCN1C(=S)N/N=C(\C)c1ccccn1 (stereo not given) ?
Result :: 2.56

###

System: HOP-62 NSCLC
Test: NCI tumour cell line growth inhibition, 48 h
quantity_name: GI50

Query :: Please report the recorded GI50 for C#Cc1cccc(Nc2ncnc3ccc(-c4cnc(Cl)c(NS(C)(=O)=O)c4)cc23)c1 .
Result :: 0.292 µM

New cases:
Query :: Look at this compound and give its reported GI50. CN(C)Cc1cccc(CN(C)C)[c]1[Sn]([Br])([c]1ccccc1)[c]1ccccc1
Result :: 17.2 µM

Query :: Then this compound: CCC(c1ccc(OC)cc1)C(CC)c1ccc(O)c(CN2CCCC2)c1 (stereo unspecified)
Result :: 3.46 µM

Query :: Request: O=c1ccccc(-c2ccc(-c3ccco3)cc2)c1O
Result :: 0.694 µM

Query :: Please do the same for CNC(=O)c1cncc(/C=C/c2c(C)cccc2C)c1 as well.
Result :: > 25 µM

Query :: Here is the next compound: O=C(NC1CCN(Cc2ccccc2)CC1)c1cc(C(=O)NC2CCN(Cc3ccccc3)CC2)cc(C(=O)NC2CCN(Cc3ccccc3)CC2)c1
Result :: 9.33 µM

###

Each entry below lists one item and its recorded GI50 value.
System: UACC-257 melanoma
Assay: NCI tumour cell line growth inhibition, 48 h

Query :: Record request: GI50 value, item CCCCNC(=O)Oc1ccc2c(=O)c3sc4c(=O)c5ccccc5c(=O)c4c3c(=O)c2c1
Result :: 237 nM

Query :: Try this compound too: N#C/C(=C/C=C/c1ccccc1)S(=O)c1ccccc1 (stereo not drawn)
Result :: 845 nM

Query :: Now the same for Oc1cccc(Cn2c(-c3cccc(O)c3O)nc3ccccc32)c1O
Result :: 19300 nM

Query :: Please answer likewise for CN(C)CCCN=c1cc2c(=O)n(CCCN(C)C)c(=O)c3c(NCCCN(C)C)cc4c(O)n(CCCN(C)C)c(=O)c1c4c3-2
Result :: 2190 nM

Query :: # iterate: O=c1ccccc(-c2ccc(-c3ccco3)cc2)c1O
Result :: 1600 nM

Next:
Query :: What does the record list as GI50 for CCOC(=O)c1c(C)[nH]c(/C=C2\N=C(c3ccc[nH]3)C=C2OC)c1C ?
Result :: 40.2 nM

Query :: Also O=C(Nc1ccc(Cl)cc1)c1cc2cc(F)ccc2cc1O ?
Result :: 1340 nM

Query :: Same read-out for O=C1CCC2=C3C4CCCCC4C(=O)C4CCCC(OC2C1)C34 (stereo not drawn) ?
Result :: 1650 nM

###

Tested on: KM20L2 colon
Assay: NCI tumour cell line growth inhibition, 48 h
quantity_name: TGI

Solved cases (2 shown):
Query :: # lookup: TGI of c1ccc2c(c1)nnn2CNc1ccc(N2CCOCC2)cc1
Result :: > 100 µM

Query :: Ok, now C[C@@H](NC1CCC[C@@H]1O)c1ccccc1 (some centres undefined)
Result :: > 100 µM

Continuing:
Query :: So what's the measured TGI for this one? C/C(=N\NS(=O)(=O)c1ccc(C)cc1)c1c(O)cc(C)oc1=O
Result :: > 100 µM

Query :: Now the molecule COc1cccc2c1C(=O)c1c(O)c3c(c(O)c1C2=O)C[C@@](O)(/C(C)=N/NC(=O)c1ccccc1)C[C@@H]3OC1CC(N)C(O)C(C)O1 (some centres undefined)
Result :: 9.23 µM

###

Tested on: SF-539 CNS
Test: NCI tumour cell line growth inhibition, 48 h
quantity_name: TGI

Observe how each entry below is paired with its result.
Query :: What value of TGI has been reported for the following compound? CN(C)c1ccc2cc(-c3cc4c(oc3=O)-c3ccccc3OC4O)c(=O)oc2c1 (stereo not given)
Result :: > 25 µM

Query :: Same read-out for CC1=C(C(=O)NCC(C)O)CC(C(=O)NCC(C)O)=C(C)N1 (stereo not given) ?
Result :: > 100 µM

Query :: Try CCCC1C(=O)C(CC)Cc2c(OC)ccc(OC)c21 (stereo not given) next.
Result :: > 100 µM

Query :: Subsequent entry: CC[C@@]1(O)C(=O)OCc2c1cc1n(c2=O)Cc2c-1nc1ccccc1c2/C=N\NC(=O)C(N)Cc1cnc[nH]1 (stereo not given in full)
Result :: 0.538 µM

Switching to the query record.
Query :: Recorded TGI of COc1cc2c(=O)n(CCCn3ccnc3)c3c4cc5c(cc4ccc3c2cc1OC)OCO5 , please.
Result :: 1.8 µM

###

Tested on: ACHN renal
Assay: NCI tumour cell line growth inhibition, 48 h
quantity_name: TGI

Reference set, count: 3
Query :: If you can, please state the reported TGI value of COc1cc2c(=O)n(CCCn3ccnc3)c3c4cc5c(cc4ccc3c2cc1OC)OCO5 .
Result :: 1.36 µM

Query :: Queued: COc1cc2c3c(n(Cc4ccccc4)c(=O)c2cc1OC)-c1ccccc1C3=O
Result :: > 100 µM

Query :: Now try CSc1nc(O)c(/C=C2\C=Nc3ccccc32)[nH]1 .
Result :: > 100 µM

--- query ---
Query :: // lookup TGI for COc1cc(C2SCC(=O)N2c2ccc(Cl)cc2)cc(I)c1O (stereo unspecified)
Result :: > 100 µM

###

Test system: UACC-62 melanoma
Assay: NCI tumour cell line growth inhibition, 48 h; in the data active = GI50 below about 0.43 µM; inactive = the rest
Your reply should match one of these outcome classes. active, inactive

The examples below pair each entry with its known result.
Query :: For O=C1C=C(N2CC2)C(=O)C=C1N1CC1 , what call appears in the results of this test?
Result :: active

Query :: Continue with COc1c(B(O)O)cccc1-c1nc2c(F)cc3[nH]ncc3c2c2c1CCCC2
Result :: inactive

Further cases:
Query :: Returns: the outcome recorded for CC1(C)CCC2(C(=O)O)CC[C@]3(C)C(=CCC4C5(C)CC[C@H](OC6OC(C(=O)O)C(O)C(OC7OC(CO)C(O)C(O)C7O)C6OC6OC(CO)C(O)C(O)C6O)C(C)(C)C5CCC43C)C2C1 (stereo partly drawn) in this assay.
Result :: inactive
